target: BSA (Bos taurus, UniProt P02769); construct: purchased Aladdin's Reagent Co., Ltd. (Shanghai, China); test: Three-dimensional fluorescence spectroscopy of BSA; format: binding, bovine; conditions: Peak 1, [BSA]:[compound] = 1:3, 298 K
Sequence (P02769 25-607): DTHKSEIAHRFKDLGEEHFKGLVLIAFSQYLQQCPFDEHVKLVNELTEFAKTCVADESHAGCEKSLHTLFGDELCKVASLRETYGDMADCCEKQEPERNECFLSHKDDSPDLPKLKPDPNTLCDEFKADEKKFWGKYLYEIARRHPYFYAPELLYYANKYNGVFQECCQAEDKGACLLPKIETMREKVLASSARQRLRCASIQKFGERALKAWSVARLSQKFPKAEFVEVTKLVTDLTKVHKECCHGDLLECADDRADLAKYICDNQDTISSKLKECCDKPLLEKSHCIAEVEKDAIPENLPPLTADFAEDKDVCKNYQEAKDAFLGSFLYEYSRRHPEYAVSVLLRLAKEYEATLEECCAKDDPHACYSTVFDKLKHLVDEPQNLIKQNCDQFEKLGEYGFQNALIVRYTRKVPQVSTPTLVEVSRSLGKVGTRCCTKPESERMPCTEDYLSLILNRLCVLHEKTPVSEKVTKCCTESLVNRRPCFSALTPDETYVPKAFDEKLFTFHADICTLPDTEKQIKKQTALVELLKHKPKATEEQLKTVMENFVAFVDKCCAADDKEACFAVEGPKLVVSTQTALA
measured.quantity: 3D fluorescence intensity
Hi, when you answer, please include the unit after the number. Thanks!

| molecule | 3D fluorescence intensity |
| --- | --- |
| COC(=O)C(C)NC(=O)COc1cc(O)c2c(=O)c(-c3ccc(O)cc3)coc2c1 (centres unmarked) | 199.8 a.u |

For each entry beneath this line, provide reported 3D fluorescence intensity.
1. COC(=O)CNC(=O)COc1cc(O)c2c(=O)c(-c3ccc(O)cc3)coc2c1
2. O=c1c(-c2ccc(O)cc2)coc2cc(O)cc(O)c12
3. COC(=O)C(NC(=O)COc1cc(O)c2c(=O)c(-c3ccc(O)cc3)coc2c1)C(C)C (centres unmarked)
4. COC(=O)C(CC(C)C)NC(=O)COc1cc(O)c2c(=O)c(-c3ccc(O)cc3)coc2c1 (centres unmarked)

["249.8 a.u", "259.2 a.u", "254.6 a.u", "263.8 a.u"]

====

What n (binding sites) was measured for each of the following?
target: BSA (Bos taurus); construct: purchased Aladdin's Reagent Co., Ltd. (Shanghai, China); experiment: Fluorescence quenching of BSA (Stern-Volmer, double-log, van't Hoff); format: binding, bovine; conditions: T 306 K
Numbers only.

A selection of reference data follows.
| compound | n (binding sites) |
| --- | --- |
| O=c1c(-c2ccc(O)cc2)coc2cc(O)cc(O)c12 [Genistein] | 1.39 |
| COC(=O)CNC(=O)COc1cc(O)c2c(=O)c(-c3ccc(O)cc3)coc2c1 [4a] | 1.72 |

For each entry beneath this line, provide reported n (binding sites).
1. COC(=O)C(NC(=O)COc1cc(O)c2c(=O)c(-c3ccc(O)cc3)coc2c1)C(C)C (centres unmarked) [4c]
2. COC(=O)C(CC(C)C)NC(=O)COc1cc(O)c2c(=O)c(-c3ccc(O)cc3)coc2c1 (centres unmarked) [4d]
3. COC(=O)C(C)NC(=O)COc1cc(O)c2c(=O)c(-c3ccc(O)cc3)coc2c1 (centres unmarked) [4b]

1: 1.53; 2: 1.47; 3: 1.53

====

biological target: BSA (Bos taurus); construct: purchased Aladdin's Reagent Co., Ltd. (Shanghai, China); assay: Fluorescence quenching of BSA (Stern-Volmer, double-log, van't Hoff); format: binding, bovine; conditions: T 310 K, BSA 1 μM, pH 7.4
measured.quantity: K SV (quenching constant)

| compound | K SV (quenching constant) |
| --- | --- |
| COC(=O)C(NC(=O)COc1cc(O)c2c(=O)c(-c3ccc(O)cc3)coc2c1)C(C)C (stereo not shown) | 4.8646 ± 0.1370 10^4 M^−1 |
| COC(=O)CNC(=O)COc1cc(O)c2c(=O)c(-c3ccc(O)cc3)coc2c1 | 7.7362 ± 0.1223 10^4 M^−1 |
| O=c1c(-c2ccc(O)cc2)coc2cc(O)cc(O)c12 | 4.3285 ± 0.1005 10^4 M^−1 |

Continue with the compound presented below.
Look up BSA (Bos taurus) data: K SV (quenching constant) of COC(=O)C(CC(C)C)NC(=O)COc1cc(O)c2c(=O)c(-c3ccc(O)cc3)coc2c1 (stereo not shown) , then report it.
4.5804 ± 0.0360 10^4 M^−1

====

What log10 Kd was measured for each of the following?
molecular target: BSA (Bos taurus, UniProt P02769); construct: purchased Aladdin's Reagent Co., Ltd. (Shanghai, China); experiment: Fluorescence quenching of BSA (Stern-Volmer, double-log, van't Hoff); assay type: binding, bovine; settings: T 310 K; read-out: K b (binding constant) (converted)
Short version: log10 scale, Kd, nM.

A selection of reference data follows.
| molecule | log10 Kd |
| --- | --- |
| O=c1c(-c2ccc(O)cc2)coc2cc(O)cc(O)c12 | 2.83 |
| COC(=O)C(C)NC(=O)COc1cc(O)c2c(=O)c(-c3ccc(O)cc3)coc2c1 (centres unmarked) | 3.19 |
| COC(=O)C(NC(=O)COc1cc(O)c2c(=O)c(-c3ccc(O)cc3)coc2c1)C(C)C (centres unmarked) | 3.30 |
| COC(=O)C(CC(C)C)NC(=O)COc1cc(O)c2c(=O)c(-c3ccc(O)cc3)coc2c1 (centres unmarked) | 3.15 |

Fill in log10 Kd for record "COC(=O)CNC(=O)COc1cc(O)c2c(=O)c(-c3ccc(O)cc3)coc2c1"
1.18

Taken from paper PMC9085648.
